Taken from the RNAGym collection of RNA variant scans (doi:10.1101/gr.219683.116).

So I've got a bunch of variants here, and I need their exon inclusion enrichment index values.
B1: mRNA-splicing (parent)
chain: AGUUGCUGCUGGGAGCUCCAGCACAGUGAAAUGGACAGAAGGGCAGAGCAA

variants of: B1; test: exon inclusion enrichment index; higher = more inclusion; WT1 exon 5 minigene, HEK293
One number for each entry.

Please review the following examples before continuing.
G5U G8U C9U A31U ... 0.15
G5C C6A U7C G8A U10A A35U ... 0.00802
A23G C24G ... 1.64

Would you mind giving exon inclusion enrichment index for every variant in the list below?
1. G5A C6U U7A G8U C9A G28A A29C
2. G5A C6G U7G C9A G38A A39G
3. C6A U7C C9A U10C A47U G48A
4. G5A C6U U7A G8U C9A U27C G28C
5. C6A U7C C9A U10C G42C
6. G5U U7G G8A C9U
7. G5U G8U C9U G21C C22G

## Result
0.0311
0.000899
2.69
0.1
4.02
1.04
0.384
